experiment: qHTS Primary assay for Inhibitors of Plasmodium falciparum Dd2 growth in vitro; note: nearly all actives have a fitted effect of over 65% in size; details: P. falciparum Dd2 growth, SYBR Green, 72 h; series mostly up to 28.9 µM
Hit rate of the full screen: of about 120,000 compounds, about 5,300 (4.4%) were called active. Roughly 22% stayed inconclusive and do not appear here. Calls come from the whole dose curve; as a rule, active = well fitted inhibition curve with a large enough effect; inconclusive = small, poorly fitted or top-dose-only effect; inactive = no such curve, though single readings can be large or run the other way. For the sample, actives were picked, then their nearest neighbours and some compounds at random.
Please state which outcome applies, choosing from active, inactive

Below are worked cases with known answers.
{"Molecule": "COc1ccc(-c2noc(-c3cccn3CC(=O)Nc3cc(Cl)ccc3OC)n2)cc1F", "Label": "active"}
{"Molecule": "COc1ccc(S(=O)(=O)N2CCN(c3ccc(F)cc3)CC2)cc1-c1noc(C)n1", "Label": "inactive"}
{"Molecule": "CC(C)CCN1C(=O)CC[C@]2(C(=O)N3CCN(C)CC3)CCCC[C@@H]12", "Label": "active"}
{"Molecule": "Cc1nn2c(c1-c1ccccc1N1CCCC1)N(C(=O)c1ccn(C)n1)CCC2", "Label": "inactive"}
{"Molecule": "Cc1ccc(CNC(=O)C2(c3ccc(NS(C)(=O)=O)cc3)CCCCC2)cc1", "Label": "inactive"}
{"Molecule": "COCCN1CC[C@H]2CN(C(=O)Cc3ccc(OC)cc3)CC[C@H]2CC1=O", "Label": "inactive"}
{"Molecule": "Cc1ccc(C2=NC3(CCN(C(=O)c4ccc(C#N)cc4)CC3)ON2)cc1", "Label": "active"}
{"Molecule": "COCCC1(NS(C)(=O)=O)CCN(C(=O)c2ccc(C#N)cc2)CC1", "Label": "inactive"}
{"Molecule": "COc1nc2nc(CC3CC3)n(C)c2cc1-c1ccc(CO)cc1", "Label": "inactive"}
{"Molecule": "CC(=O)c1ccc(NC(=O)c2nc3nc(C)cc(C(F)F)n3n2)cc1", "Label": "inactive"}

Note: attention shifts to another entry.
Request: Test call, this molecule: CN(C)C(=O)c1nc(-c2ccc(Cl)cc2Cl)c2cnccn12
Response: active

----------
Assay: qHTS Primary assay for Inhibitors of Plasmodium falciparum Dd2 growth in vitro; note: nearly all actives have a fitted effect of over 65% in size;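 for activity, negative = inhibition: plate controls were DMSO vehicle for no effect and reference drug for full effect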
Details: P. falciparum Dd2 growth, SYBR Green, 72 h; series mostly up to 28.9 µM
Description: Malaria, a parasitic disease spread to humans through the bite of a Plasmodium infected Anopheles mosquito, continues to be a global health burden affecting millions of people, with an estimated 228 million cases and 405,000 deaths in 2018. […] Malaria-vivax Assay Protocol: PROTOCOL TABLE (as described by Inglese et al., 2007) SEQUENCE No. (e.g., 1, 2, 3, etc.); […] […] Compound Management for Quantitative High-Throughput Screening. […]
Screen size: about 120,000 compounds; about 5,300 (4.4%) were called active. About 22% were inconclusive and are not listed. Many of the other results were omitted from the sample, so actives are more common in it than they were.
Recorded activity, negative = inhibition values for a group of compounds are listed next.

Use these answered entries as a reference point.
{"Compound": "O=C(Nc1ccccc1Cl)N1CCc2nc3cc[nH]n3c(=O)c2C1", "activity, negative = inhibition": "-0.962% [at 5.79 µM] (inactive)"}
{"Compound": "CCCNC(=O)N1CC(Oc2ccc(-c3nc(C)no3)cc2)C1", "activity, negative = inhibition": "40.8% [at 5.79 µM] (inactive)"}
{"Compound": "CCCN1CCc2nc(N3CCN(C)CC3)ncc2C1", "activity, negative = inhibition": "36.4% [at 5.79 µM] (inactive)"}
{"Compound": "O=C(NC1CCCC1)N1CCC(c2noc(-c3ccccc3)n2)C1 (stereo unspecified)", "activity, negative = inhibition": "13.8% [at 5.79 µM] (inactive)"}
{"Compound": "O=C(c1ccccc1F)N1CC(Oc2cccc(-c3nc(-c4ccccc4)no3)c2)C1", "activity, negative = inhibition": "36.6% [at 5.79 µM] (inactive)"}

Request: // fetch activity, negative = inhibition given entry O=C(NC1CCCC1)N1CCC(Oc2ccc(-c3noc(C4CC4)n3)cc2)C1 (stereo unspecified)
Response: 5.78% [at 5.79 µM] (inactive)

----------
experiment: qHTS Primary assay for Inhibitors of Plasmodium falciparum Dd2 growth in vitro; note: nearly all actives have a fitted effect of over 65% in size; conditions: P. falciparum Dd2 growth, SYBR Green, 72 h; series mostly up to 28.9 µM
Screen size: about 120,000 compounds; about 5,300 (4.4%) were called active. About 22% were inconclusive and are not listed. Calls follow the shape of the dose curve; as a rule, active = well fitted inhibition curve with a large enough effect; inconclusive = small, poorly fitted or top-dose-only effect; inactive = no such curve, though single readings can be large or run the other way. The full list was thinned out, with actives kept by preference.
Please state which outcome applies, choosing from y for active, n for inactive

{"Molecule": "C=CCN1CC2(CCC1=O)CCN(C(=O)[C@H](N)Cc1ccccc1)CC2", "Label": "n"}

Request: Test call, this molecule: Cc1cc(C[C@@H]2COC[C@@H]2NC(=O)c2ccc3nc(C)[nH]c3c2)on1
Response: n

Request: Test call, this molecule: COc1ccccc1Oc1ncccc1CNC(=O)c1ccc2n[nH]nc2c1
Response: n

----------
assay: qHTS Primary assay for Inhibitors of Plasmodium falciparum Dd2 growth in vitro; note: nearly all actives have a fitted effect of over 65% in size; note: potency is the fitted concentration of half-maximal effect; conditions: P. falciparum Dd2 growth, SYBR Green, 72 h; series mostly up to 28.9 µM
Among all 120,000 compounds or so, about 5,300 (4.4%) were called active. Another 22% or so got no clear call; they are omitted. Only a selection was taken, and actives are over-represented in it overall.
Test Readout: Potency

{"Compound": "O=C(NC1CCCCC1)N1C[C@@H]2C[C@H](C1)c1c(NS(=O)(=O)c3ccccc3)ccc(=O)n1C2", "Assay Result": "inactive"}
{"Compound": "Cc1cccc(-n2ncc(C(=O)N3CCC(C)CC3)c2C2CCN(C(=O)OC(C)(C)C)CC2)c1", "Assay Result": "inactive"}
{"Compound": "COCCN1C(=O)[C@H]2CN(Cc3ccsc3)C[C@H]2C1=O", "Assay Result": "inactive"}
{"Compound": "COc1ccc(C(=O)N2CCCOCCNC(=O)CC2)c(OC)n1", "Assay Result": "inactive"}

Then there is this compound:
Request: // fetch Potency given entry Cc1cccc(-n2ncc(C(=O)N3CCc4ccccc4C3)c2C2CCN(C(=O)OC(C)(C)C)CC2)c1
Response: inactive

----------
test: qHTS Primary assay for Inhibitors of Plasmodium falciparum Dd2 growth in vitro; note: nearly all actives have a fitted effect of over 65% in size; conditions: P. falciparum Dd2 growth, SYBR Green, 72 h; series mostly up to 28.9 µM
Out of some 120,000 compounds screened, about 5,300 (4.4%) were called active. Not shown: some 22% with an inconclusive outcome. The call rests on the fitted dose curve; in most records, active means well fitted inhibition curve with a large enough effect; inconclusive means small, poorly fitted or top-dose-only effect; inactive means no such curve, though single readings can be large or run the other way. This is one part of a sample in which actives are shown more often than they occur.
Please state which outcome applies, choosing from active, inactive

{"Compound": "Cc1cccc(C)c1NC(=O)N1CCC(OC2CCN(S(C)(=O)=O)CC2)CC1", "Label": "inactive"}

Request: Test call, this compound: O=C(NCc1ccccc1)[C@@H]1Cc2nc[nH]c2CN1Cc1cccc(OC(F)(F)F)c1
Response: active

Request: Test call, this compound: Cc1nn(-c2ccccc2)c(C)c1CN1CCCC12Cc1ccccc1CNC2=O (configuration not stated)
Response: active

----------
assay: qHTS Primary assay for Inhibitors of Plasmodium falciparum Dd2 growth in vitro; note: nearly all actives have a fitted effect of over 65% in size; note: potency is the fitted concentration of half-maximal effect; conditions: P. falciparum Dd2 growth, SYBR Green, 72 h; series mostly up to 28.9 µM
In all, about 120,000 compounds went through this assay and about 5,300 (4.4%) were called active. Another 22% or so got no clear call; they are omitted. The sample holds actives, similar compounds and a random draw of the others, so the mix is not that of the screen.
Test Readout: Potency

Use these answered entries as a reference point.
{"Molecule": "CC(C)C(=O)N1CCC(OC2CCN(Cc3ccccc3)CC2)CC1", "Potency": "inactive"}
{"Molecule": "Cc1ccc(CN2COc3cc(C)c4c(oc(=O)c5ccccc54)c3C2)cc1", "Potency": "1.12 µM (active)"}
{"Molecule": "CN1CCOC(CNc2ncc(C(C)(C)C(=O)O)c(N3CCOCC3)n2)C1 (stereo unspecified)", "Potency": "inactive"}
{"Molecule": "COc1ccc(CC(=O)NC[C@@H]2C=C(C)[C@H](Cc3nc4ccncc4[nH]3)C[C@H]2C(C)C)cc1", "Potency": "inactive"}

Request: // fetch Potency given entry CCc1cc2c(-c3ccccc3)cc(=O)oc2c2c1OCN(Cc1ccc(C)cc1)C2
Response: 2.24 µM (active)

Request: // fetch Potency given entry COC(=O)c1ccccc1NC(=O)c1ccc(COc2ccccc2Cl)o1
Response: inactive

Request: // fetch Potency given entry O=C(Cn1ccn2nc(-c3ccc(F)cc3)c(CO)c2c1=O)NCCC1=CCCCC1
Response: inactive

Request: // fetch Potency given entry CCCCC(CC)CNC(=O)C1CCN(S(=O)(=O)c2cccc3nsnc23)CC1 (stereo unspecified)
Response: inactive

----------
assay: qHTS Primary assay for Inhibitors of Plasmodium falciparum Dd2 growth in vitro; note: nearly all actives have a fitted effect of over 65% in size; conditions: P. falciparum Dd2 growth, SYBR Green, 72 h; series mostly up to 28.9 µM
Screen size: about 120,000 compounds; about 5,300 (4.4%) were called active. Another 22% or so got no clear call; they are omitted. Calls come from the whole dose curve; as a rule, active = well fitted inhibition curve with a large enough effect; inconclusive = small, poorly fitted or top-dose-only effect; inactive = no such curve, though single readings can be large or run the other way. Shown is part of a subset that was picked to be rich in actives.
Please state which outcome applies, choosing from label 1 = active, label 0 = inactive

Below are worked cases with known answers.
{"Compound": "FC(F)(F)c1cccc(-c2cc(C3=CCOCC3)c3cncn3c2)c1", "Label": "label 1"}
{"Compound": "C[C@@H](NC(=O)COc1ccccc1)c1c(-c2ccc(F)cc2)noc1C(=O)O", "Label": "label 0"}
{"Compound": "CC(=O)N1CCN(Cc2ccc(C(F)(F)F)c(F)c2)CC(O)C1 (stereo unspecified)", "Label": "label 0"}
{"Compound": "N#Cc1cccc(CN2C[C@H](O)C[C@H]2c2nc(-c3ccccn3)no2)c1", "Label": "label 0"}
{"Compound": "O=C1c2cc(N3CCOCC3)nc(-c3cccnc3)c2CN1C1COC1", "Label": "label 0"}
{"Compound": "Cc1cccc(N2CCN(C(=O)c3cc4n(n3)CC(c3ccc(Cl)cc3)OC4)CC2)c1 (stereo unspecified)", "Label": "label 0"}

Request: Test call, this compound: COC(=O)c1ccc(NC(=O)CCc2c(C)nc3c(c(C)nn3-c3ccc(C)cc3)c2C)cc1
Response: label 1

Request: Test call, this compound: CC[C@H]1CN(C(=O)Nc2ccccc2)CC[C@H]1CC(=O)Nc1ccccc1
Response: label 0

Request: Test call, this compound: O=C(NCc1ccccc1)N1CCN2C(=O)NC[C@H]2C1
Response: label 0

Request: Test call, this compound: COC1C(=O)N(c2cccc(F)c2)C12CCN(C(=O)NCc1ccc(C)cc1)CC2 (stereo unspecified)
Response: label 0
